Test system: CASOB (Sicklepod)
Assay: Preemergence herbicidal evaluation
Type: in vivo, Cassia obtusifolia
Settings: rate 0.2500 kg/ha; rated 4-5 weeks after treatment
Outcome label depends on Preemergence herbicidal rating CASOB relative to 8: at/above gives rule met, below gives rule not met.

>>> answer_label("CCOC(=O)CN1C(=O)C(Cc2ccccc2OC(C)C(=O)OC)SC1=Nc1cc(-n2c(=O)cc(C(F)(F)F)n(C)c2=O)c(F)cc1Cl (centres unmarked) [Compound 50]")
"rule met"
>>> answer_label("CCOC(=O)CN1C(=O)C(Cc2ccccc2OC(C)C(=O)O)S/C1=N/c1cc(-n2c(=O)cc(C(F)(F)F)n(C)c2=O)c(F)cc1Cl (centres unmarked) [Compound 114]")
"rule met"
>>> answer_label("COC(=O)[C@H](Cc1ccc([N+](=O)[O-])cc1)N1C(=O)CSC1=Nc1cc(-n2c(=O)cc(C(F)(F)F)n(C)c2=O)c(F)cc1Cl [Compound 78]")
"rule not met"
>>> answer_label("Cn1c(C(F)(F)F)cc(=O)n(-c2cc(N=C3SCC(=O)N3CC(=O)NS(C)(=O)=O)c(Cl)cc2F)c1=O [Compound 38]")
"rule not met"
>>> answer_label("Cn1c(C(F)(F)F)cc(=O)n(-c2cc(N=C3SCC(=O)N3Cc3ccco3)c(Cl)cc2F)c1=O [Compound 122]")
"rule not met"
>>> answer_label("C#CCOC(=O)CC1SC(=Nc2cc(-n3c(=O)cc(C(F)(F)F)n(C)c3=O)c(F)cc2Cl)N(CC(=O)OCC)C1=O (centres unmarked) [Compound 59]")
"rule not met"
>>> answer_label("CCCCOC(=O)CN1C(=O)CSC1=Nc1cc(-n2c(=O)cc(C(F)(F)F)n(C)c2=O)c(F)cc1Cl [Compound 111]")
"rule met"
>>> answer_label("CCOC(=O)CN1C(=O)C(CC(=O)OCc2ccccc2)OC1=Nc1cc(-n2c(=O)cc(C(F)(F)F)n(C)c2=O)c(F)cc1Cl (centres unmarked) [Compound 40]")
"rule not met"
>>> answer_label("CCOC(=O)CCN1C(=O)CSC1=Nc1cc(-n2c(=O)cc(C(F)(F)F)n(C)c2=O)c(Cl)cc1Cl [Compound 32]")
"rule not met"
>>> answer_label("Cn1c(C(F)(F)F)cc(=O)n(-c2cc(N=C3SCC(=O)N3[C@@H](Cc3ccccc3)C(=O)O)c(Cl)cc2F)c1=O [Compound 53]")
"rule not met"

Proceed to the following item.
Qu. Test whether the molecule C=CCN1C(=O)C(CC(=O)O)SC1=Nc1cc(-n2c(=O)cc(C(F)(F)F)n(C)c2=O)c(F)cc1Cl (centres unmarked) [Compound 62] records Preemergence herbicidal rating CASOB of 8 or higher.
Ans. rule not met

###

Documented Herbicidal rating SAGPY across a set of molecules
Tested on: SAGPY (Arrowhead (Pygmaea))
Assay: Preemergence weed control under flooded paddy conditions
Assay type: in vivo, Sagittaria pygmaea
Settings: 0.1250 kg/ha, rated 3-4 weeks after treatment
Description: Results of herbicide evaluation are expressed on a rating scale (0-9). The scale is based upon a visual observation of plant stand, vigor, malformation, size, chlorosis and overall plant appearance as compared with a control. Preemergence herbicidal activity under flooded paddy conditions is determined as follows: plant seeds or propagating organs are planted in the top 0.5 cm of silt loam soil in 32 oz. plastic containers with a diameter of 10.5 cm and no drainage holes. […]
Just the number.

Sample records with Herbicidal rating SAGPY:
>>> obs_value("Cn1c(C(F)(F)F)cc(=O)n(-c2cc(N=C3SCC(=O)N3CCC(=O)O)c(Cl)cc2F)c1=O")
0.0
>>> obs_value("CCOC(=O)CN1C(=O)C(Cc2ccccc2OC(C)C(=O)OC)SC1=Nc1cc(-n2c(=O)cc(C(F)(F)F)n(C)c2=O)c(F)cc1Cl (centres unmarked)")
3.0

Qu. Which Herbicidal rating SAGPY value is on record for C=CCN1C(=O)CSC1=Nc1cc(-n2c(=O)cc(C(F)(F)F)n(C)c2=O)c(F)cc1Cl ?
Ans. 4.0

Qu. Find the recorded Herbicidal rating SAGPY belonging to COC(=O)CCN1C(=O)CSC1=Nc1cc(-n2c(=O)cc(C(F)(F)F)n(C)c2=O)c(F)cc1Cl and report it.
Ans. 0.0

Qu. Quick one: Herbicidal rating SAGPY for O=C1CSC(=Nc2cc(N3C(=O)C4=C(CCCC4)C3=O)c(F)cc2Cl)N1c1ccccc1 ?
Ans. 0.0
